Measured EC50 accompanies every entry in the list below.
# System: MDA-MB-175VII
# PROCEDURE_TEXT: CellTiter-Glo (CTG) EC50, MDA-MB-175VII breast cancer control cell line
# Type: cell-based, human
# CONDITION_SUMMARY: Homo sapiens, MDA-MB-175-VII, read-out: CTG EC50 MDA-MB-175VII, single determinations, raw data of Supp. Tab. 2, independent experiments; unit from Supp. Tab. 2

The following molecules have reported results that may help.
>>> print(df.to_string())
                               smiles_entry  readout  observed_value
0  COC(=O)N[C@@](C)(c1ccc(F)cc1)c1cnc(N2CCN(c3ncnn4cc(-c5cnn(C)c5)cc34)CC2)nc1     EC50         ≥ 10 µM
1  Cn1cc(-c2cc3c(N4CCN(c5ncc(Cc6ccccc6)cn5)CC4)ncnn3c2)cn1     EC50         ≥ 10 µM
2              Cn1cc(-c2cc3c(Cl)ncnn3c2)cn1     EC50           10 µM
3  Cn1cc(-c2cc3c(N4CCC5(CC4)CN(c4ncc(Cc6ccccc6)cn4)C5)ncnn3c2)cn1     EC50         ≥ 10 µM

Prompt: May I ask what EC50 has been recorded for CC(=O)N[C@@](C)(c1ccc(F)cc1)c1cnc(N2CCN(c3ncnn4cc(-c5cnn(C)c5)cc34)CC2)nc1 ?
Response: ≥ 10 µM

Prompt: What does the data say about its EC50? Entry: Cn1cc(-c2cc3c(N4CCN(c5ncc([C@@](C)(N)c6ccc(F)cc6)cn5)CC4)ncnn3c2)cn1
Response: 5.7 µM

Prompt: Give its EC50 value. Item: Cn1cc(-c2cc3c(N4CCN(c5ncc([C@@](C)(NC(=O)c6ccccc6)c6ccc(F)cc6)cn5)CC4)ncnn3c2)cn1
Response: ≥ 10 µM

----------
# PROCEDURE_TEXT: MDCKII-MDR1 permeability assay
# CONDITION_SUMMARY: dog, MDCK-MDR1, MDCKII-MDR1 (Papp A→B), at 10 µM; 2 h, 37 °C; unit inferred
Listed compounds paired with reported Papp A→B at 2 h, 10 µM
Please respond with the number in ×10⁻⁶ cm/s and leave the unit unwritten.

For orientation, consider the following solved cases.
                               smiles_entry  observed_value
0  Cn1cc(-c2cc3c(N4CCN(c5ncc([C@@](C)(NC(=O)c6ccccc6)c6ccc(F)cc6)cn5)CC4)ncnn3c2)cn1             3.5
1  C=CC(=O)N[C@@](C)(c1ccc(F)cc1)c1cnc(N2CCN(c3ncnn4cc(-c5cnn(C)c5)cc34)CC2)nc1            10.1
2  CC(=O)N[C@@](C)(c1ccc(F)cc1)c1cnc(N2CCN(c3ncnn4cc(-c5cnn(C)c5)cc34)CC2)nc1            11.3
3  COC(=O)N[C@@](C)(c1ccc(F)cc1)c1cnc(N2CCN(c3ncnn4cc(-c5cnn(C)c5)cc34)CC2)nc1            12.4

Please find the next compound below.
Prompt: // query Papp A→B at 2 h, 10 µM value for entry Cn1cc(-c2cc3c(N4CCN(c5ncc([C@@](C)(N)c6ccc(F)cc6)cn5)CC4)ncnn3c2)cn1
Response: 12.5

----------
# Test system: T1-a-5258
# PROCEDURE_TEXT: CellTiter-Glo (CTG) GR50, T1-a-5258
# CONDITION_SUMMARY: Homo sapiens, read-out: PDGFRA CTG GR50 T1-a-5258, mean ± s.d., n ≥ 3; triple mutant D842V, G652E, V658A
Measured GI50 by item

Sample records with GI50:
In [3]: df
Out[3]:
                                   compound  target_system  readout  observed_value
0  CCN[C@@](C)(c1ccc(F)cc1)c1cnc(N2CCN(c3ncnn4cc(-c5cnn(C)c5)cc34)CC2)nc1 [Compound 9]      T1-a-5258     GI50         1.33 µM
1  Cn1cc(-c2cc3c(N4CC5(CN(c6ncc(Cc7ccccc7)cn6)C5)C4)ncnn3c2)cn1 [Compound 6]      T1-a-5258     GI50         9.53 µM
2  Cn1cc(-c2cc3c(N4CCN(c5ncc(Cc6ccccc6)cn5)CC4)ncnn3c2)cn1 [Compound 5]      T1-a-5258     GI50         8.26 µM

Prompt: I have this compound here, CC(=O)N[C@@](C)(c1ccc(F)cc1)c1cnc(N2CCN(c3ncnn4cc(-c5cnn(C)c5)cc34)CC2)nc1 [Compound 10] , and I need its recorded GI50.
Response: 2.06 µM

----------
# System: GIST-T1
# PROCEDURE_TEXT: CellTiter-Glo (CTG) GR50, GIST-T1
# CONDITION_SUMMARY: Homo sapiens, GISTT1, read-out: KIT CTG GR50 GIST-T1, mean ± s.d., n ≥ 3; GR50 half-maximal growth inhibition rate
Mark met for GI50 under 1000 nM, not met if at or over.

Some solved cases for reference:
>>> print(df.to_string())
                                   molecule  discrete_label
0  Cn1cc(-c2cc3c(N4CCN(c5ncc(Cc6ccccc6)cn5)CC4)ncnn3c2)cn1 [Compound 5]         not met
1  Cn1cc(-c2cc3c(N4CCC5(CC4)CN(c4ncc(Cc6ccccc6)cn4)C5)ncnn3c2)cn1 [Compound 7]             met
2  Cn1cc(-c2cc3c(N4CCNCC4)ncnn3c2)cn1 [Compound 3]         not met
3  Cn1cc(-c2cc3c(N4CCN(c5ncccn5)CC4)ncnn3c2)cn1 [Compound 4]         not met
4  Cn1cc(-c2cc3c(Cl)ncnn3c2)cn1 [Compound 2]         not met

Prompt: Check if GI50 falls below 1000 nM for Cn1cc(-c2cc3c(N4CCN(c5ncc([C@@](C)(N)c6ccc(F)cc6)cn5)CC4)ncnn3c2)cn1 [ava (1), avapritinib] .
Response: met

Prompt: Is it true that GI50 reported for COC(=O)N[C@@](C)(c1ccc(F)cc1)c1cnc(N2CCN(c3ncnn4cc(-c5cnn(C)c5)cc34)CC2)nc1 [Compound 12] is less than 1000 nM?
Response: met

Prompt: Item CCN[C@@](C)(c1ccc(F)cc1)c1cnc(N2CCN(c3ncnn4cc(-c5cnn(C)c5)cc34)CC2)nc1 [Compound 9] : GI50 beneath 1000 nM, strictly?
Response: met

----------
# System: T1-T670I
# PROCEDURE_TEXT: CellTiter-Glo (CTG) GR50, T1-T670I
# CONDITION_SUMMARY: Homo sapiens, read-out: KIT CTG GR50 T1-T670I, mean ± s.d., n ≥ 3
# key: entry, value: GI50
State the answer as a number, implicitly in µM.

>>> df
                               smiles_entry  readout  observed_value
0  Cn1cc(-c2cc3c(N4CCN(c5ncc([C@@](C)(N)c6ccc(F)cc6)cn5)CC4)ncnn3c2)cn1     GI50           0.457

Please turn your attention to the following entry.
Prompt: Quick one: GI50 of CCN[C@@](C)(c1ccc(F)cc1)c1cnc(N2CCN(c3ncnn4cc(-c5cnn(C)c5)cc34)CC2)nc1 ?
Response: 1.5

----------
# Test system: MDR1
# PROCEDURE_TEXT: MDCKII-MDR1 permeability assay
# CONDITION_SUMMARY: dog, MDCK-MDR1, Recovery A->B, MDCKII-MDR1; assay conc. 10
READOUT: recovery at 2 h, 10 µM (%)
Just the number in %, nothing appended.

# example entries with known answers
>>> df
                                   compound  unit_info  observed_value
0  Cn1cc(-c2cc3c(N4CCN(c5ncc([C@@](C)(NC(=O)c6ccccc6)c6ccc(F)cc6)cn5)CC4)ncnn3c2)cn1          %            81.4
1  C=CC(=O)N[C@@](C)(c1ccc(F)cc1)c1cnc(N2CCN(c3ncnn4cc(-c5cnn(C)c5)cc34)CC2)nc1          %            34.2
2  COC(=O)N[C@@](C)(c1ccc(F)cc1)c1cnc(N2CCN(c3ncnn4cc(-c5cnn(C)c5)cc34)CC2)nc1          %            25.4
3  CC(=O)N[C@@](C)(c1ccc(F)cc1)c1cnc(N2CCN(c3ncnn4cc(-c5cnn(C)c5)cc34)CC2)nc1          %            44.1

--- query ---
Prompt: Please report the recorded recovery at 2 h, 10 µM for Cn1cc(-c2cc3c(N4CCN(c5ncc(C(C)(N)c6ccc(F)cc6)cn5)CC4)ncnn3c2)cn1 (centres unmarked) .
Response: 87.6

Data provenance: paper PMC10761696
